Where do these numbers come from? They come from patent US20240400654A1.

Can you tell me Ratio OD(Variant)/OD(WT) for the items I'm about to list?
- TESTED_SYSTEM: HRgpA-6H (Porphyromonas gingivalis) (UniProt P28784)
- ASSAY_PROCEDURE: ELISA, coated HRgpA-6H
Answers are plain numbers.

Consider the worked cases shown below.
KB001 mouse Fab VH N60T (Fab, V domains shown) VH: EVQLKQSGPGLVAPSQSLSITCTVSGFSLSIYSVHWVRQPPGKGLEWLGMIWGGGSSDYTSALKSRLSISKDNSKSQVFLKMNSLQTDDTAMYYCARNGNFYAMDYWGQGTSVTVSS VL: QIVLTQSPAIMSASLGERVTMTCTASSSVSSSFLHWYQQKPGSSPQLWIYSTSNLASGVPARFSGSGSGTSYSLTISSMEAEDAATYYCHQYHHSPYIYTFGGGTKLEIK = 0.823
KB001 mouse Fab VL F33N (Fab, V domains shown) VH: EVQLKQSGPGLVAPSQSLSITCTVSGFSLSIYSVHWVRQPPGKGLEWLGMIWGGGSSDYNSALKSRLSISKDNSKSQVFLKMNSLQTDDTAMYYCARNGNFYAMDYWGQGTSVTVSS VL: QIVLTQSPAIMSASLGERVTMTCTASSSVSSSNLHWYQQKPGSSPQLWIYSTSNLASGVPARFSGSGSGTSYSLTISSMEAEDAATYYCHQYHHSPYIYTFGGGTKLEIK = 0.844
KB001 mouse Fab VL S53R (Fab, V domains shown) VH: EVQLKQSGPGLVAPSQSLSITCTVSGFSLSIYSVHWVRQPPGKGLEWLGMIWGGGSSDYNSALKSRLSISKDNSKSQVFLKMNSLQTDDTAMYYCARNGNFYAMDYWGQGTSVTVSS VL: QIVLTQSPAIMSASLGERVTMTCTASSSVSSSFLHWYQQKPGSSPQLWIYSTRNLASGVPARFSGSGSGTSYSLTISSMEAEDAATYYCHQYHHSPYIYTFGGGTKLEIK = 0.809
KB001 mouse Fab VH S28Y (Fab, V domains shown) VH: EVQLKQSGPGLVAPSQSLSITCTVSGFYLSIYSVHWVRQPPGKGLEWLGMIWGGGSSDYNSALKSRLSISKDNSKSQVFLKMNSLQTDDTAMYYCARNGNFYAMDYWGQGTSVTVSS VL: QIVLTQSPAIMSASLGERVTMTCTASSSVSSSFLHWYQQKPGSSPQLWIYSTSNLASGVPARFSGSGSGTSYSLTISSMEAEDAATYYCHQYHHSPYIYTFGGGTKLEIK = 0.809
KB001 mouse Fab VL T24K/R18S (Fab, V domains shown) VH: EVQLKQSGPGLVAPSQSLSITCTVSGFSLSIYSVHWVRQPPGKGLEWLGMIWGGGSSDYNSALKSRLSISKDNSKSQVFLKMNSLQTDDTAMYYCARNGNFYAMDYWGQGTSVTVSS VL: QIVLTQSPAIMSASLGESVTMTCKASSSVSSSFLHWYQQKPGSSPQLWIYSTSNLASGVPARFSGSGSGTSYSLTISSMEAEDAATYYCHQYHHSPYIYTFGGGTKLEIK = 0.99

Give one value of Ratio OD(Variant)/OD(WT) per listed binder.
1. KB001 mouse Fab VH G99S (Fab, V domains shown) VH: EVQLKQSGPGLVAPSQSLSITCTVSGFSLSIYSVHWVRQPPGKGLEWLGMIWGGGSSDYNSALKSRLSISKDNSKSQVFLKMNSLQTDDTAMYYCARNSNFYAMDYWGQGTSVTVSS VL: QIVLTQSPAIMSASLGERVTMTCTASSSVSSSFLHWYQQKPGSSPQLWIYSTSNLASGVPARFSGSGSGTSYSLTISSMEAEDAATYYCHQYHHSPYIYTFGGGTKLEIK
2. KB001 mouse Fab VL L55K (Fab, V domains shown) VH: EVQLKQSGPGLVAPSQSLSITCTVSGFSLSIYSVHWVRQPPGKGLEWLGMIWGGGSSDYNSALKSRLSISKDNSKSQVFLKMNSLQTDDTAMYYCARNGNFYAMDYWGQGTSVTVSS VL: QIVLTQSPAIMSASLGERVTMTCTASSSVSSSFLHWYQQKPGSSPQLWIYSTSNKASGVPARFSGSGSGTSYSLTISSMEAEDAATYYCHQYHHSPYIYTFGGGTKLEIK

OUT:
1: 1.01; 2: 0.981

Give one value of Ratio OD(Variant)/OD(WT) per listed binder.
1. KB001 mouse Fab VL S30M (Fab, V domains shown) VH: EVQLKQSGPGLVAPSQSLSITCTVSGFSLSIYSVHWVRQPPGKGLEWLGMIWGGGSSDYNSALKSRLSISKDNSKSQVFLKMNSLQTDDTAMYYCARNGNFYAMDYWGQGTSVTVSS VL: QIVLTQSPAIMSASLGERVTMTCTASSSVMSSFLHWYQQKPGSSPQLWIYSTSNLASGVPARFSGSGSGTSYSLTISSMEAEDAATYYCHQYHHSPYIYTFGGGTKLEIK
2. KB001 mouse Fab VH Y106L (Fab, V domains shown) VH: EVQLKQSGPGLVAPSQSLSITCTVSGFSLSIYSVHWVRQPPGKGLEWLGMIWGGGSSDYNSALKSRLSISKDNSKSQVFLKMNSLQTDDTAMYYCARNGNFYAMDLWGQGTSVTVSS VL: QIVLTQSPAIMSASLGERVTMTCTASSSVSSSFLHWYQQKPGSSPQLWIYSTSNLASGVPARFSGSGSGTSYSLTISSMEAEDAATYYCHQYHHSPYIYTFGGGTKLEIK
3. KB001 mouse Fab VL S53A (Fab, V domains shown) VH: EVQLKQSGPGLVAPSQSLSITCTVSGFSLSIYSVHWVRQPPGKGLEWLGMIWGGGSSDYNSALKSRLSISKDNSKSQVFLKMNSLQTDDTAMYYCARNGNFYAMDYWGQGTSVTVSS VL: QIVLTQSPAIMSASLGERVTMTCTASSSVSSSFLHWYQQKPGSSPQLWIYSTANLASGVPARFSGSGSGTSYSLTISSMEAEDAATYYCHQYHHSPYIYTFGGGTKLEIK

OUT:
[0.949, 1.03, 0.996]
